From: the Deep4Chem optical property database

run-description: solvent given as SMILES
settings: in c1ccccc1
assay-readout: emission maximum (nm)

In [3]: df
Out[3]:
                                    compound  assay_result
 0  Cc1cc(C)c(B(c2c(C)cc(C)cc2C)c2cc3ccc4ccccc4c3c3c2ccc2ccccc23)c(C)c1           444
 1  CN(C)c1ccc(/C=C/C=C2\CC/C(=C\c3ccc(N(C)C)cc3)C2=O)cc1           532
 2                 O=C1c2ccccc2NCN1Cc1ccccc1           395
 3  CCOC(=O)c1sc2nc(-c3ccccc3)c(C)c(C#N)c2c1N           549
 4  COc1ccc([C@@H]2C[C@](O)(c3ccccn3)C[C@](O)(c3ccccn3)[C@H]2C(=O)c2ccc(N(c3ccccc3)c3ccccc3)cc2)cc1           468
 5  CC1(C)Nc2cc(Cl)ccc2-c2[nH]c3ccccc3c(=O)c21           462
 6                    O=C1c2ccccc2-c2ccccc21           485
 7       CCOC(=O)c1sc2nc3c(c(C#N)c2c1N)CCCC3           545
 8  CCCCN(CCCC)c1ccc(C#Cc2cc(C#Cc3c(F)c(F)c(F)c(F)c3F)c(C#Cc3c(F)c(F)c(F)c(F)c3F)cc2C#Cc2ccc(N(CCCC)CCCC)cc2)cc1           505
 9  COC(=O)C(Cc1ccc2oc(-c3ccc(Nc4ccccc4)cc3)nc2c1)NC(=O)OC(C)(C)C (configuration not stated)         398.5
10  CC(C)[Si]1(C(C)C)c2cc(C#N)ccc2-c2ccc(N(C)C)cc21           422
11  CCC1=C(C)C(=O)n2c1cc1c(CCC(=O)O)c(C)c(C)n1c2=O           470
